# assay.target: Phosphodiesterase 2 and 5 (PDE2 and PDE5) (Homo sapiens) (UniProt O76074+O00408)
# protocol.details: Relative inhibition of PDE2 and PDE5 from human corpus cavernosum
# Assay type: protein assay
Let's look at some molecules and their measured Selectivity.
Reply with just the number.

molecule	assay.target	Selectivity
O=C(c1ccc(-c2ccccn2)o1)N1CCc2c([nH]c3ccccc23)C1c1ccc2c(c1)CCO2 (centres undefined)	Phosphodiesterase 2 and 5 (PDE2 and PDE5) (Homo sapiens) (UniProt O76074+O00408)	308

Then this molecule:
query: Which Selectivity value belongs to COc1ccc(-c2cnc(N3CC(=O)c4c([nH]c5ccccc45)C3c3ccc4c(c3)OCO4)nc2)cc1OC (centres undefined) ?
result: 23000

----------
# assay.target: cGMP-specific 3',5'-cyclic phosphodiesterase (Homo sapiens)
pKi: −log10 of the molar value.
Is pKi at least 7? Then TRUE. If not, FALSE.

query: Is pKi for c1ccc2c3c([nH]c2c1)C(c1ccc2c(c1)CCO2)N(c1ncc(-c2ccc(OCCN4CCCC4)cc2)cn1)CC3 (stereo not drawn) at or above 7?
result: FALSE

query: Is pKi for COc1ccc(-c2cnc(N3CCc4c([nH]c5ccccc45)C3c3ccc4c(c3)OCO4)nc2)cc1 (stereo in doubt; 8a) at or above 7?
result: FALSE

query: Is pKi for O=C(c1ccc(-c2ccccn2)o1)N1CCc2c([nH]c3ccccc23)C1c1ccc2c(c1)CCO2 (stereo not drawn) at or above 7?
result: TRUE

query: Is pKi for FC(F)(F)c1cccc(-c2ccc(CN3CCc4c([nH]c5ccccc45)C3c3ccc4c(c3)OCO4)o2)c1 (stereo not drawn) at or above 7?
result: FALSE

query: Is pKi for COc1ccc(-c2cnc(N3CC(=O)c4c([nH]c5ccccc45)C3c3ccc4c(c3)OCO4)nc2)cc1 (stereo not drawn) at or above 7?
result: TRUE

----------
# Species on record: Homo sapiens
# protocol.details: Relative inhibition of PDE6 from human retinal cone and PDE5 from human corpus cavernosum
Let's look at some molecules and their measured Selectivity.
Reply with just the number.

Below are worked cases with known answers.
molecule	Selectivity
O=C(c1ccc(-c2ccccn2)o1)N1CCc2c([nH]c3ccccc23)C1c1ccc2c(c1)CCO2 (centres undefined)	32
Cc1ncc(-c2cnc(N3CCc4c([nH]c5ccccc45)C3c3ccc4c(c3)CCO4)nc2)n1C (centres undefined)	187
COc1ccc(-c2cnc(N3CC(=O)c4c([nH]c5ccccc45)C3c3ccc4c(c3)OCO4)nc2)cc1OC (centres undefined)	4

Then this molecule:
query: Which Selectivity value belongs to CN1CCN(C(=O)c2ccc(-c3ccc(C(=O)N4CCc5c([nH]c6ccccc56)C4c4ccc5c(c4)CCO5)o3)cc2)CC1 (centres undefined) ?
result: 119

----------
# assay.target: cGMP-specific 3',5'-cyclic phosphodiesterase (Homo sapiens)
# protocol.details: Inhibitory activity against PDE5 from human corpus cavernosum
Let's look at some molecules and their measured Ki.
Don't forget the unit after the value.

molecule	Ki
O=C(c1ccc(-c2cccc(C(F)(F)F)c2)o1)N1CCc2c([nH]c3ccccc23)C1c1ccc2c(c1)OCO2 (stereo not drawn)	126 nM
Clc1ccc(-c2cnc(N3CCc4c([nH]c5ccccc45)C3c3ccc4c(c3)OCO4)nc2)cc1 (stereo not drawn)	126 nM

Then this molecule:
query: Given the entry Oc1ccc(-c2cnc(N3CCc4c([nH]c5ccccc45)C3c3ccc4c(c3)CCO4)nc2)cc1 (stereo not drawn) , what Ki was observed with cGMP-specific 3',5'-cyclic phosphodiesterase (Homo sapiens)?
result: 154 nM
